System: Acinetobacter baumannii
Test name: Antibacterial activity against Acinetobacter baumannii ATCC BAA 1710 after 18 hrs by broth microdilution method
Format: functional
Assay context: ATCC BAA 1710, 18 h
Observable: MIC

[
  {
    "Smiles notation": "NCC[C@H](O)C(=O)N[C@@H]1C[C@H](N)[C@@H](O[C@H]2O[C@H](CN)[C@@H](O)[C@H](O)[C@H]2O)[C@H](O)[C@H]1O[C@H]1O[C@H](CO)[C@@H](O)[C@H](N)[C@H]1O",
    "MIC": "> 50 µM"
  }
]

Take each entry in turn and give its MIC.
1. CCCCCCCCCC(=O)N[C@@H](Cc1c[nH]c2ccccc12)C(=O)N[C@H](CC(N)=O)C(=O)N[C@@H](CC(=O)O)C(=O)N[C@@H]1C(=O)NCC(=O)N[C@@H](CCCNC(=O)CCCC(=O)N(O)CCCCCNC(=O)CCC(=O)N(CCCCNC(=O)c2cccc(O)c2O)CCCNC(=O)c2cccc(O)c2O)C(=O)N[C@@H](CC(=O)O)C(=O)N[C@H](C)C(=O)N[C@@H](CC(=O)O)C(=O)NCC(=O)N[C@H](CO)C(=O)N[C@@H]([C@@H](C)CC(=O)O)C(=O)N[C@@H](CC(=O)c2ccccc2N)C(=O)O[C@@H]1C
2. O=C(O)c1cn(C2CC2)c2cc(N3CCNCC3)c(F)cc2c1=O
3. CCCCCCCCCC(=O)N[C@@H](Cc1c[nH]c2ccccc12)C(=O)N[C@@H](CC(N)=O)C(=O)N[C@@H](CC(=O)O)C(=O)N[C@@H]1C(=O)NCC(=O)N[C@@H](CCCN)C(=O)N[C@@H](CC(=O)O)C(=O)N[C@H](C)C(=O)N[C@@H](CC(=O)O)C(=O)NCC(=O)N[C@H](CO)C(=O)N[C@@H]([C@H](C)CC(=O)O)C(=O)N[C@@H](CC(=O)c2ccccc2N)C(=O)O[C@@H]1C

["0.8 µM", "> 25 µM", "> 100 µM"]
